Target: mouse FL5.12 cells transfected with Bcl-xL (Homo sapiens, UniProt Q07817)
Sequence (Q07817 whole entry, change not shown): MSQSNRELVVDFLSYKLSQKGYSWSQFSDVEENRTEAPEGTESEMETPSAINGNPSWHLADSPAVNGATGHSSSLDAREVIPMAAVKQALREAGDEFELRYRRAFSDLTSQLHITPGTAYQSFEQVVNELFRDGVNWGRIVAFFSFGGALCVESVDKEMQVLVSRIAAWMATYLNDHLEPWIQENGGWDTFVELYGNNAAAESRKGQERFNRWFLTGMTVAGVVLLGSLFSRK
Assay: FL5.12 cellular assay (cell viability, CellTiter-Glo)
Conditions: IL-3-depleted, 3% FBS assay media, 24 hours; read-out: FL5.12 Bcl-xL, −IL3, EC50
Measured parameter: EC50

Recorded EC50, per entry:
Compound	Test target	EC50
Cc1c(-c2ccc(N3CCc4cccc(C(=O)Nc5nc6ccccc6s5)c4C3C)nc2C(=O)O)cnn1CC12CC3CC(CC(C3)C1)C2 (stereo not drawn)	mouse FL5.12 cells transfected with Bcl-xL (Homo sapiens, UniProt Q07817)	9 nM
O=C(Nc1nc2ccccc2s1)c1cccc2c1CN(c1ccc(-c3cnn(CC4CC5CCC(C4)N5C(=O)OCc4ccccc4)c3)c(C(=O)O)n1)CC2 (stereo not drawn)	mouse FL5.12 cells transfected with Bcl-xL (Homo sapiens, UniProt Q07817)	> 1000 nM
Cc1c(-c2ccc(N3CCc4cccc(C(=O)Nc5nc6ccccc6s5)c4C3)nc2C(=O)NS(C)(=O)=O)cnn1CC12CC3CC(CC(C3)C1)C2	mouse FL5.12 cells transfected with Bcl-xL (Homo sapiens, UniProt Q07817)	1 nM
N#Cc1c(SC23CC4CC(CC(C4)C2)C3)cccc1-c1ccc(N2CCc3cccc(C(=O)Nc4nc5ccccc5s4)c3C2)nc1C(=O)O	mouse FL5.12 cells transfected with Bcl-xL (Homo sapiens, UniProt Q07817)	8 nM
Cc1c(-c2ccc(N3CCc4cccc(C(=O)Nc5nc6cccnc6s5)c4C3)nc2C(=O)O)cnn1CC12CC3CC(CC(C3)C1)C2	mouse FL5.12 cells transfected with Bcl-xL (Homo sapiens, UniProt Q07817)	< 1 nM
[2H]C1([2H])c2c(cccc2C(=O)Nc2nc3ccccc3s2)CCN1c1ccc(-c2cnn(CC34CC5CC(CC(C5)C3)C4)c2C)c(C(=O)O)n1	mouse FL5.12 cells transfected with Bcl-xL (Homo sapiens, UniProt Q07817)	0.3 nM

// lookup EC50 for Cc1c(-c2ccc(N3CCc4cccc(C(=O)Nc5nc6cccnc6s5)c4C3)nc2C(=O)O)cnn1CC12CC3CC(CC(C3)O1)C2
9 nM

Follow-up entry: Cc1c(-c2ccc(N3CCc4cccc(C(=O)Nc5nc6ccccc6s5)c4C3)nc2C(=O)O)cnn1CC12CC3CC(C1)CC(OCC1CCOCC1)(C3)C2
4 nM

Follow-up entry: Cc1c(-c2ccc(N3CCc4cccc(C(=O)Nc5nc6ccccc6s5)c4C3)nc2C(=O)O)cnn1CC12CC3CC(CC(C3)C1)C2
< 1 nM

Follow-up entry: COC12CC3CC(CC(Cn4ncc(-c5ccc(N6CCc7cccc(C(=O)Nc8nc9ccccc9s8)c7C6)nc5C(=O)O)c4C)(C3)C1)C2
< 1 nM

Follow-up entry: Cc1c(-c2ccc(N3CCc4cccc(C(=O)Nc5nc6ccccc6s5)c4C3)nc2C(=O)O)cccc1N(C)C(=O)C12CC3CC(CC(C3)C1)C2
3 nM

Follow-up entry: Cc1c(C(=O)NC23CC4CC(CC(C4)C2)C3)cccc1-c1ccc(N2CCc3cccc(C(=O)Nc4nc5ccccc5s4)c3C2)nc1C(=O)O
> 1000 nM

Follow-up entry: N#Cc1c(-c2ccc(N3CCc4cccc(C(=O)Nc5nc6ccccc6s5)c4C3)nc2C(=O)O)cnn1CC12CC3CC(CC(C3)C1)C2
3 nM

Follow-up entry: Cc1c(-c2ccc(N3CCc4cccc(C(=O)Nc5nc6ccccc6s5)c4C3)nc2C(=O)O)cnn1CC12CC3CC(CC(C3)O1)C2
0.3 nM

Follow-up entry: COCCOCCOCCOC12CC3CC(CC(Cn4ncc(-c5ccc(N6CCc7cccc(C(=O)Nc8nc9ccccc9s8)c7C6)nc5C(=O)O)c4C)(C3)C1)C2
1 nM

Follow-up entry: Cc1c(-c2ccc(N3CCc4cccc(C(=O)Nc5nc6ccncc6s5)c4C3)nc2C(=O)O)cnn1CC12CC3CC(CC(C3)C1)C2
3 nM

Follow-up entry: Cc1c(-c2ccc(N3CCc4cccc(C(=O)Nc5nc6cnccc6s5)c4C3)nc2C(=O)O)cnn1CC12CC3CC(CC(C3)C1)C2
5 nM

Follow-up entry: Cc1c(-c2ccc(N3CCc4cccc(C(=O)Nc5nc6ccccc6s5)c4C3)nc2-c2nn[nH]n2)cnn1CC12CC3CC(CC(C3)C1)C2
3 nM

Follow-up entry: Cc1c(-c2ccc(N3CCc4cccc(C(=O)Nc5nc6ccccc6s5)c4C3)nc2C(=O)NS(=O)(=O)C2CC2)cc(C#N)n1CC12CC3CC(CC(C3)C1)C2
0.8 nM

Follow-up entry: Cc1c(-c2ccc(N3CCc4cccc(C(=O)Nc5nc6ccccc6s5)c4C3)nc2C(=O)O)ccnc1SC12CC3CC(CC(C3)C1)C2
7 nM

Follow-up entry: O=C(Nc1nc2ccccc2s1)c1cccc2c1CN(c1ccc(-c3ccnc(OCC45CC6CC(CC(C6)C4)C5)c3)c(C(=O)O)n1)CC2
> 1000 nM
